System: U2OS
Test: Multiplex assay against U2OS
Type: toxicity, cell-based
Conditions: human, 12 h, 10 µM, compound concentration 10 uM, replicate 1
Friendly reminder: Population Healthy Nuclei (%) below 60% is Y, at or above is N.

Completed entries (count: 4):
# Compound, Category
records = [
    ("Cc1nn(C)c2nc(NNC(=O)Nc3cc(Cl)nc(Cl)c3)cc(C(C)C)c12", "Y"),
    ("S=C(NCCCc1c[nH]cn1)NCCCN(Cc1ccc(Cl)c(Cl)c1)c1ccc(Br)cn1", "Y"),
    ("Cc1ccc(OCC(O)C(C)NC(C)C)c2c1CCC2.Cl (centres undefined)", "Y"),
    ("CN1CCC(C(=O)c2cccc(NC(=O)c3c(F)cc(F)cc3F)n2)CC1", "N"),
]

Lab note: Population Healthy Nuclei (%) threshold 60%. Does this compound come in strictly under it? COc1cc2nc(N3CCN(C(=O)COc4c(OC)cccc4C(C)C)CC3)nc(N)c2cc1OC.Cl.Cl Y

Lab note: Population Healthy Nuclei (%) threshold 60%. Does this compound come in strictly under it? C=CCN1C[C@H](C(=O)N(CCCN(C)C)C(=O)NCC)C[C@@H]2c3cccc4[nH]cc(c34)C[C@H]21 [CABERGOLINE] Y

Lab note: Population Healthy Nuclei (%) threshold 60%. Does this compound come in strictly under it? CN(C)C(=O)Cn1cc(-c2ccc(-c3nnc4ccccn34)cc2)cn1 N

Lab note: Population Healthy Nuclei (%) threshold 60%. Does this compound come in strictly under it? CN(C)C/C=C/C(=O)Nc1ccc(C(=O)N2CCCC(Nc3ncc(Cl)c(-c4c[nH]c5ccccc45)n3)C2)cc1 (centres undefined) Y

Lab note: Population Healthy Nuclei (%) threshold 60%. Does this compound come in strictly under it? C[C@H](NC(=O)CNC(=O)c1cccc(Cl)c1)c1ccccc1 N
